Catalogue of compounds with associated Activity
target: Gamma-aminobutyric acid receptor subunit alpha-2 (Homo sapiens); assay: Maximum percent potentiation against gamma-aminobutyric acid (GABA) A receptor, alpha 2; conditions: Xenopus laevis
Hi! Could you send only the number? It should be in %, unit omitted.

Here is how some compounds turned out for Activity.
* Oc1nc2c(c3nc(-c4ccccc4F)cn13)CN(Cc1cccs1)CC2 | 54
* Oc1nc2c(c3nc(-c4ccccc4F)cn13)CN(Cc1ccncc1)CC2 | 42
* COc1cccc(-c2cn3c(O)nc4c(c3n2)CN(Cc2ccccc2)CC4)c1 | 115
* Oc1nc2c(c3nc(-c4ccc(F)cc4)cn13)CN(Cc1ccccc1)CC2 | 155

Moving on to the next compound.
Look up Activity for this compound: `Oc1nc2c(c3nc(-c4ccccc4)cn13)CN(Cc1ccccc1)CC2`
179

* * *

biological target: Gamma-aminobutyric acid receptor subunit alpha-2 (Homo sapiens); experiment: Effective concentration against gamma-aminobutyric acid (GABA) A receptor, alpha 2
quantity-kind: pEC50
Please express pEC50 as -log10 of the molar concentration.

Here is how some compounds turned out for pEC50.
• COc1ccc(-c2cn3c(=O)[nH]c4c(c3n2)CN(Cc2ccccc2)CC4)cc1 = 6.84
• Oc1nc2c(c3nc(-c4ccccc4F)cn13)CN(c1ncccn1)CC2 = 7.08
• O=c1[nH]c2c(c3nc(-c4ccccc4)cn13)CN(Cc1ccccc1)CC2 = 6.74
• Oc1nc2c(c3nc(-c4cc(F)ccc4F)cn13)CN(Cc1ccccc1)CC2 = 6.73

Look up pEC50 for this compound: `O=c1[nH]c2c(c3nc(-c4ccc(F)cc4)cn13)CN(Cc1ccccc1)CC2`
6.61

Look up pEC50 for this compound: `Oc1nc2c(c3nc(-c4ccccc4F)cn13)CN(CC1CC1)CC2`
5.93

* * *

target: Gamma-aminobutyric acid receptor subunit alpha-1 (Homo sapiens) (UniProt P14867); assay: Maximum percent potentiation against gamma-aminobutyric acid (GABA) A receptor, alpha 1; conditions: Xenopus laevis
quantity-kind: Activity (%)
Hi! Could you send only the number? It should be in %, unit omitted.

- COc1ccc(-c2cn3c(O)nc4c(c3n2)CN(Cc2ccccc2)CC4)cc1: 122
- C=CCN1CCc2nc(O)n3cc(-c4ccccc4F)nc3c2C1: 5

Moving on to the next compound.
Look up Activity for this compound: `Oc1nc2c(c3nc(-c4cc(F)ccc4F)cn13)CN(Cc1ccccc1)CC2`
59

* * *

Biological target: Gamma-aminobutyric acid receptor subunit alpha-1 (Homo sapiens, UniProt P14867)
Sequence (P14867 whole entry): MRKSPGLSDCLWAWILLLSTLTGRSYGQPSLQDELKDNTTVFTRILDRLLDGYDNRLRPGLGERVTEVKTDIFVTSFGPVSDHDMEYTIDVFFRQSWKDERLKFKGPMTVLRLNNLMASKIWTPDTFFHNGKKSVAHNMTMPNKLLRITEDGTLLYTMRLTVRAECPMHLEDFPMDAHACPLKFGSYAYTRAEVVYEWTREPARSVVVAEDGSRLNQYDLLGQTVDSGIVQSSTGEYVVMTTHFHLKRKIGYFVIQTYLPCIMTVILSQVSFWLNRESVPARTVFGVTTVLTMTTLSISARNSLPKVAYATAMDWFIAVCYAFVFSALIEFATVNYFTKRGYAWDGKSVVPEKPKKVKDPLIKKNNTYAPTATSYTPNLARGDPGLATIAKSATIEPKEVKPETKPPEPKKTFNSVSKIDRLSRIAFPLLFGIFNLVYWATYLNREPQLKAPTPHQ
Experiment: Effective concentration against gamma-aminobutyric acid (GABA) A receptor, alpha 1
Catalogue of molecules with associated EC50
Hi! Could you send only the number? It should be in nM, unit omitted.

Here is how some molecules turned out for EC50.
* O=c1[nH]c2c(c3nc(-c4ccccc4F)cn13)CN(Cc1ccccc1)CC2 | 18
* CCCCN1CCc2nc(O)n3cc(-c4ccccc4F)nc3c2C1 | 258
* CCC(=O)N1CCc2nc(O)n3cc(-c4ccccc4F)nc3c2C1 | 95

Look up EC50 for this molecule: `Oc1nc2c(c3nc(-c4cc(F)ccc4F)cn13)CN(Cc1ccccc1)CC2`
36

Look up EC50 for this molecule: `Cc1nnc2n1-c1ccc(Cl)cc1C(c1ccccc1)=NC2`
37

Look up EC50 for this molecule: `O=c1[nH]c2c(c3nc(-c4ccccc4F)cn13)CN(Cc1cnc[nH]1)CC2`
118

Look up EC50 for this molecule: `Oc1nc2c(c3nc(-c4ccccc4F)cn13)CN(Cc1cccs1)CC2`
107

Look up EC50 for this molecule: `Oc1nc2c(c3nc(-c4ccccc4F)cn13)CN(CC1CC1)CC2`
135

Look up EC50 for this molecule: `O=c1[nH]c2c(c3nc(-c4ccccc4)cn13)CN(Cc1ccccc1)CC2`
17

* * *

biological target: Gamma-aminobutyric acid receptor subunit alpha-3 (Homo sapiens); experiment: Effective concentration against gamma-aminobutyric acid (GABA) A receptor, alpha 3
Sequence (P34903 whole entry): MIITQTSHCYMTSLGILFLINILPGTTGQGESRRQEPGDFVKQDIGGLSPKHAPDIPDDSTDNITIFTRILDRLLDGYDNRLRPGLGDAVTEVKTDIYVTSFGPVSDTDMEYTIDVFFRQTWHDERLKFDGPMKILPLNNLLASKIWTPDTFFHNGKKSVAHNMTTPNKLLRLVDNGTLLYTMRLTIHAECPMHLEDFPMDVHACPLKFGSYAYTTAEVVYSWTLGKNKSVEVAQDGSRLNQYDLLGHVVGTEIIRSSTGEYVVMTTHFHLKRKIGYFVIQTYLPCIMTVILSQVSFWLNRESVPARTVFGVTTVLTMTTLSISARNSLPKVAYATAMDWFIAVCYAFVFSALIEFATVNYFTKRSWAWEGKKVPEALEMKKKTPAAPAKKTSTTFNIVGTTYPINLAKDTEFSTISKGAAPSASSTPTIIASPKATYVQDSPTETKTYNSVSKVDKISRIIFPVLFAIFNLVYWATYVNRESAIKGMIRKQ
quantity-kind: pEC50
Please express pEC50 as -log10 of the molar concentration.

Here is how some molecules turned out for pEC50.
• O=c1[nH]c2c(c3nc(-c4ccccc4F)cn13)CN(Cc1cnc[nH]1)CC2 = 6.37
• Cc1nnc2n1-c1ccc(Cl)cc1C(c1ccccc1)=NC2 = 7.16
• CCC(=O)N1CCc2nc(O)n3cc(-c4ccccc4F)nc3c2C1 = 6.94
• Oc1nc2c(c3nc(-c4ccccc4F)cn13)CN(Cc1ccncc1)CC2 = 7.48
• CCCCN1CCc2nc(O)n3cc(-c4ccccc4F)nc3c2C1 = 6.40
• O=c1[nH]c2c(c3nc(-c4ccccc4F)cn13)CN(CC1CCCCC1)CC2 = 6.67
• O=c1[nH]c2c(c3nc(-c4ccccc4F)cn13)CN(Cc1ccccc1)CC2 = 7.70
• O=c1[nH]c2c(c3nc(-c4ccccc4F)cn13)CN(Cc1cccnc1)CC2 = 7.64

Record `Oc1nc2c(c3nc(-c4ccccc4F)cn13)CN(c1ncccn1)CC2` : what is its pEC50 with Gamma-aminobutyric acid receptor subunit alpha-3 (Homo sapiens)?
6.93

Record `C=CCN1CCc2[nH]c(=O)n3cc(-c4ccccc4F)nc3c2C1` : what is its pEC50 with Gamma-aminobutyric acid receptor subunit alpha-3 (Homo sapiens)?
6.46

* * *

target: Gamma-aminobutyric acid receptor subunit alpha-3 (Homo sapiens) (UniProt P34903); assay: Maximum percent potentiation against gamma-aminobutyric acid (GABA) A receptor, alpha 3; conditions: Xenopus laevis
Sequence (P34903 whole entry): as above
Catalogue of compounds with associated Activity
Hi! Could you send only the number? It should be in %, unit omitted.

Here is how some compounds turned out for Activity.
• Oc1nc2c(c3nc(-c4ccc(F)cc4F)cn13)CN(Cc1ccccc1)CC2 = 95
• Cc1ccc(-c2nc3ccc(C)cn3c2CC(=O)N(C)C)cc1 = 700

Look up Activity for this compound: `Cc1nnc2n1-c1ccc(Cl)cc1C(c1ccccc1)=NC2`
774

Look up Activity for this compound: `Oc1nc2c(c3nc(-c4ccccc4F)cn13)CN(CC1CC1)CC2`
28

* * *

Target: Gamma-aminobutyric acid receptor subunit alpha-2 (Homo sapiens) (UniProt P47869)
Sequence (whole entry): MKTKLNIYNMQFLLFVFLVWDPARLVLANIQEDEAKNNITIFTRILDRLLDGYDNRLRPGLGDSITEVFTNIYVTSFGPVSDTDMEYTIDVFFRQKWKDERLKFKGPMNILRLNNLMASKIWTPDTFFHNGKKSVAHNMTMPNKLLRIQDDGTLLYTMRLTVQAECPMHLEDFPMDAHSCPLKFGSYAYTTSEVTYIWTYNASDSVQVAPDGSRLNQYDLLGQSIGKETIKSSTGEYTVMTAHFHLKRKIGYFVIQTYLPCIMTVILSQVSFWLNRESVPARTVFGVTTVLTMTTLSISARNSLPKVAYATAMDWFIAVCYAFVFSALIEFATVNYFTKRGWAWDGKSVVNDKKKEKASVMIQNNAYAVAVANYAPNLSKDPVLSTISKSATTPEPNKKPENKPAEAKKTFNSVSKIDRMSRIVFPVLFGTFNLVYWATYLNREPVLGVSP
Experiment: Maximum percent potentiation against gamma-aminobutyric acid (GABA) A receptor, alpha 2
Details: Xenopus laevis
Catalogue of compounds with associated Activity

Here is how some compounds turned out for Activity.
* Oc1nc2c(c3nc(-c4cccc(F)c4)cn13)CN(Cc1ccccc1)CC2 | 81%
* Oc1nc2c(c3nc(-c4cc(F)ccc4F)cn13)CN(Cc1ccccc1)CC2 | 82%
* CCN1CCc2nc(O)n3cc(-c4ccccc4F)nc3c2C1 | 0%
* Oc1nc2c(c3nc(-c4ccc(F)cc4F)cn13)CN(Cc1ccccc1)CC2 | 184%
* O=C(OCc1ccccc1)N1CCc2nc(O)n3cc(-c4ccccc4F)nc3c2C1 | 8%
* Oc1nc2c(c3nc(-c4ccccc4F)cn13)CN(c1ncccn1)CC2 | 44%

Look up Activity for this compound: `Cc1nnc2n1-c1ccc(Cl)cc1C(c1ccccc1)=NC2`
333%

Look up Activity for this compound: `Oc1nc2c(c3nc(-c4ccccc4F)cn13)CN(Cc1ccccc1)CC2`
76%

Look up Activity for this compound: `Oc1nc2c(c3nc(-c4ccccc4F)cn13)CN(Cc1cccnc1)CC2`
78%

Look up Activity for this compound: `C=CCN1CCc2nc(O)n3cc(-c4ccccc4F)nc3c2C1`
18%
